src = PubChem BioAssay AID1159580

assay: chemical genetic growth profiling, strain panel (AID 1159580);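 also: tested at 20 µM; growth read once vehicle control cultures reached saturation at 30 °C; 1 = growth at the plate median or of vehicle wells; lower values mean less growth of the strain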; details: S. cerevisiae deletion strains, growth OD, locus YJR075W, strain HOC1, active compounds read low
The whole screen tested about 5,500 compounds, of which about 2,000 (36%) were called active. Inconclusive results (about 18%) are left out. Some of the results follow.

{"compound": "COc1ccc2c(c1)OC/C(=C/c1ccc(OC)c(OC)c1)C2=O", "normalized growth": "0.955 (inactive)"}
{"compound": "COc1cc2c(cc1OC)C(=O)c1ccc(OC)c(OC)c1OCC(=O)C2", "normalized growth": "0.997 (inactive)"}
{"compound": "CSc1nc2ccccc2[nH]1", "normalized growth": "0.956 (inactive)"}
{"compound": "CCC1(O)CC(OC2CC(N(C)C)C(OC3CC(O)C(OC4CCC(=O)C(C)O4)C(C)O3)C(C)O2)c2c(cc3c(c2O)C(=O)c2c(O)cccc2C3=O)C1C(=O)OC (centres undefined)", "normalized growth": "0.975 (inactive)"}
{"compound": "CCOC(=O)Cc1csc(N=CNO)n1", "normalized growth": "1.05 (inactive)"}
{"compound": "O=C1C(Cl)=C(Cl)C(=O)C(Cl)=C1Cl", "normalized growth": "0.566 (active)"}
{"compound": "CC[C@H]1OC(=O)[C@H](C)[C@@H](O[C@H]2C[C@@](C)(OC)[C@@H](O)[C@H](C)O2)[C@H](C)[C@@H](O[C@@H]2O[C@H](C)C[C@H](N(C)C)[C@H]2O)[C@](C)(OC)C[C@@H](C)C(=O)[C@H](C)[C@@H](O)[C@]1(C)O", "normalized growth": "0.954 (inactive)"}
{"compound": "Cc1sc2ccccc2c1CC1=NCCN1", "normalized growth": "1.01 (inactive)"}
{"compound": "S=C1NCN(CCN2CCCC2)CN1", "normalized growth": "0.997 (inactive)"}
